From: paper PMC5540273

test system: MST2; construct: gene STK3; details: concentration: 1 μM, replicates: in singlicate; n = 1;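 note: KINOMEscan kinase panel screen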
// reported %Inh for each item listed
Report as a plain number; the unit % is understood.

// solved cases for %Inh follow
> print(dat)
                                   compound  assayed.target  measured
1  CN(c1ccc(NC(=O)Nc2cc(C(F)(F)F)ccc2F)cc1)c1ccnc(Nc2ccc(S(N)(=O)=O)cc2)n1 [GW809893]            MST2         2
2  Nc1n[nH]c2cnc(-c3ccccc3)cc12 [SB-642124]            MST2         8
3  O=c1[nH]cc(-c2ccc(N3CCOCC3)cc2)c2sc(-c3cn[nH]c3)cc12 [GSK2276055]            MST2        32
4  O=C(Nc1cccc(-c2nn3ncccc3c2-c2ccnc(Nc3ccccc3)n2)c1)c1c(F)cccc1F [GSK198271]            MST2       100

Prompt: Return %Inh (reported value) for this compound: "CCc1ccc(-c2ccc3c(c2)-c2c(cnn2C)S(=O)(=O)N3C)cc1"
Response: 0

* * *

// reported %Inh for each item listed
test system: ABL1-nonphosphorylated; details: concentration: 1 μM, replicates: in singlicate; n = 1
Report as a plain number; the unit % is understood.

> print(dat)
                                   compound  observable  measured
1  O=C(Nc1cccc(-c2nn3ncccc3c2-c2ccnc(Nc3ccccc3)n2)c1)c1c(F)cccc1F [GSK198271]        %Inh        60
2  CC(=O)Nc1nc2cnc(Nc3cc(NC(=O)c4cccc(C5(C#N)CC5)c4Cl)ccc3C)nc2s1        %Inh        99
3  CN1CCN(Cc2cccc(-c3ccc4c(Nc5ccc(Oc6ccccc6)cc5)ccnc4c3)c2)CC1 [GW578342]        %Inh      91.6

Turning now to a further record.
Prompt: Return %Inh (reported value) for this compound: "CCc1ccc(-c2ccc3c(c2)-c2c(cnn2C)S(=O)(=O)N3C)cc1"
Response: 7

* * *

tested on: TGFBR1; conditions: concentration: 1 μM, replicates: in singlicate; n = 1
// reported %Inh for each item listed
Report as a plain number; the unit % is understood.

> print(dat)
                                   compound  assayed.target  measurement.unit  measured
1  CCCCc1nn2ncccc2c1-c1ccnc(Nc2ccc(N3CCN(C)CC3)cc2)n1          TGFBR1                 %        80
2  O=C(Nc1cccc(Oc2ccc3nc(NC(=O)C4CC4)cn3n2)c1)c1ccccc1C(F)(F)F          TGFBR1                 %         9
3  C[C@@H]1CC[C@@H](C(=O)Nc2ccccc2)CN1c1cc(-c2ccc3c(N)n[nH]c3c2)nc(N)n1          TGFBR1                 %         0
4  Cc1occc1-c1ncc(OC[C@@H](N)Cc2c[nH]c3ccccc23)cc1-c1ccc2[nH]nc(C)c2c1.O=C(O)C(F)(F)F          TGFBR1                 %         0
5  O=C(O)C(F)(F)F.O=C(O)C(F)(F)F.O=c1[nH]ccc2nc(N[C@@H]3CCCNC3)nc(Nc3ccc(S(=O)(=O)N4CCOCC4)cc3)c12          TGFBR1                 %        32

Turning now to a further record.
Prompt: Return %Inh (reported value) for this compound: "CC(=O)Nc1nc2cnc(Nc3cc(NC(=O)c4cccc(C5(C#N)CC5)c4Cl)ccc3C)nc2s1"
Response: 4

* * *

// reported %Inh for each item listed
tested on: CAMK1D; conditions: concentration: 1 μM, replicates: in singlicate; n = 1
Report as a plain number; the unit % is understood.

// solved cases for %Inh follow
> print(dat)
                                   molecule  measured
1  COc1cc(Nc2nccc(N3CCC(NC(=O)Nc4cccc(C(C)=O)c4)C3)n2)cc(OC)c1OC (centres unmarked)        20
2  Nc1ncc(-c2cccnc2)c2scc(-c3ccc4c(c3)CCN4C(=O)Cc3ccccc3)c12        22
3  O=C(Nc1ccccc1F)NC1CCN(c2ccnc(Nc3ccc(F)cc3)n2)CC1         5
4              Nc1n[nH]c2cnc(-c3ccccc3)cc12         0

Turning now to a further record.
Prompt: Return %Inh (reported value) for this molecule: "Fc1ccc(-c2ncn(C3CCNCC3)c2-c2ccnc(Oc3ccc(-c4ccccc4)cc3)n2)cc1"
Response: 30

* * *

tested on: TAOK3; conditions: concentration: 1 μM, replicates: in singlicate; n = 1
observable: %Inh (%)
Report as a plain number; the unit % is understood.

Prompt: Return %Inh (reported value) for this compound: "CN1CCN(Cc2cccc(-c3ccc4c(Nc5ccc(Oc6ccccc6)cc5)ccnc4c3)c2)CC1"
Response: 0

Prompt: Return %Inh (reported value) for this compound: "O=c1[nH]cc(-c2ccc(N3CCOCC3)cc2)c2sc(-c3cn[nH]c3)cc12"
Response: 21

* * *

system: MYLK4; conditions: concentration: 1 μM, replicates: in singlicate; n = 1
Please mark 1.0 if the recorded %Inh is equal to or greater than 10%, and 0.0 if it falls below.

Record excerpt, results attached:
> print(dat)
                                   compound  assigned.label
1  COC(=O)Nc1nc2cc(Oc3ccc(NC(=O)Nc4cc(C(F)(F)F)ccc4F)cn3)ccc2[nH]1.Cl.Cl             0.0
2  Cl.NC(=O)c1cccc(Nc2nccc(Nc3ccc(Oc4c(Cl)cccc4Cl)c(Cl)c3)n2)c1             0.0
3  CSc1cccc2c(-c3ccncn3)c(-c3ccc(F)cc3)nn12             0.0
4  CCS(=O)(=O)c1ccc(OC)c(Nc2nccc(-c3c(-c4cccc(NC(=O)c5c(F)cccc5F)c4)nn4ncccc34)n2)c1             0.0

Prompt: Reported %Inh at or above 10%? "O=C(O)C(F)(F)F.O=C(O)C(F)(F)F.O=c1[nH]ccc2nc(N[C@@H]3CCCNC3)nc(Nc3ccc(S(=O)(=O)N4CCOCC4)cc3)c12"
Response: 1.0

Prompt: Reported %Inh at or above 10%? "CN1CCN(CCCNc2nccc(-c3c(-c4ccc(F)cc4)nn4cc(C(F)(F)F)ccc34)n2)CC1"
Response: 0.0

Prompt: Reported %Inh at or above 10%? "C[C@@H]1CC[C@@H](C(=O)Nc2ccccc2)CN1c1cc(-c2ccc3c(N)n[nH]c3c2)nc(N)n1"
Response: 0.0

Prompt: Reported %Inh at or above 10%? "O=C(Nc1n[nH]c2cc(-c3ccoc3)ccc12)C1CC1"
Response: 1.0

Prompt: Reported %Inh at or above 10%? "O=C(Nc1cccc(-c2nn3ccccc3c2-c2ccnc(Nc3cccc(C(F)(F)F)c3)n2)c1)c1c(F)cccc1F"
Response: 0.0

Prompt: Reported %Inh at or above 10%? "COCCOCCOc1cc2ncc3c4ccc(C#N)cc4[nH]c3c2cc1OC"
Response: 1.0

Prompt: Reported %Inh at or above 10%? "CNC(=O)c1ccccc1Nc1nc(Nc2ccc(N3CCOCC3)cc2)ncc1Cl.Cl"
Response: 1.0

Prompt: Reported %Inh at or above 10%? "COc1cccc(C(=O)Nc2cccc(Oc3ccc4nc(NC(=O)C5CC5)cn4n3)c2)c1"
Response: 0.0

Prompt: Reported %Inh at or above 10%? Cl.Cl.NCC(NC(=O)c1cc(-c2ccccc2)c(-c2ccnc3[nH]ccc23)s1)c1ccccc1 (centres unmarked)
Response: 1.0

Prompt: Reported %Inh at or above 10%? "COc1cc(Nc2nccc(-c3c(-c4cccc(NC(=O)c5c(F)cccc5F)c4)nn4ccccc34)n2)cc(OC)c1OC"
Response: 0.0

Prompt: Reported %Inh at or above 10%? COc1cccc(NC(=O)NC2CCN(c3ccnc(Nc4cc(OC)c(OC)c(OC)c4)n3)C2)c1 (centres unmarked)
Response: 0.0

Prompt: Reported %Inh at or above 10%? "CCc1ccc(-c2ccc3c(c2)-c2c(cnn2C)S(=O)(=O)N3C)cc1"
Response: 0.0

Prompt: Reported %Inh at or above 10%? "Nc1ncc(-c2cccnc2)c2scc(-c3ccc4c(c3)CCN4C(=O)Cc3ccccc3)c12"
Response: 1.0

Prompt: Reported %Inh at or above 10%? "Cn1cc(-c2ccc3c(c2)CCN3C(=O)Cc2cccc(F)c2)c2c(N)ncnc21"
Response: 0.0

Prompt: Reported %Inh at or above 10%? Cl.Cl.NCC(C(=O)Nc1cc(Br)c(-c2ccnc3[nH]ccc23)s1)c1ccccc1 (centres unmarked)
Response: 1.0

Prompt: Reported %Inh at or above 10%? COc1cc(Nc2nccc(N3CCC(NC(=O)c4cc5ccccc5s4)C3)n2)cc(OC)c1OC (centres unmarked)
Response: 0.0

Prompt: Reported %Inh at or above 10%? "CC(=O)Nc1nc2cnc(Nc3cc(NC(=O)c4cccc(C5(C#N)CC5)c4Cl)ccc3C)nc2s1"
Response: 0.0

Prompt: Reported %Inh at or above 10%? "COc1cc(Nc2ncc3c(C)nc(-c4cc5ccccc5[nH]4)n3n2)cc(OC)c1OC"
Response: 1.0

Prompt: Reported %Inh at or above 10%? "Nc1ncnc2c1nc(-c1ccccc1)n2-c1ccccc1"
Response: 1.0

Prompt: Reported %Inh at or above 10%? COc1ccc(Nc2nccc(N3CCC(NC(=O)Nc4cccc(OC)c4)C3)n2)cc1 (centres unmarked)
Response: 0.0

Prompt: Reported %Inh at or above 10%? "CC(C)c1nc(-c2cccc(NS(=O)(=O)c3c(F)cccc3F)c2F)c(-c2ccnc(Nc3ccc(N4CCOCC4)nc3)n2)s1"
Response: 0.0

Prompt: Reported %Inh at or above 10%? "O=C(Nc1cccc(-c2nn3ncccc3c2-c2ccnc(Nc3ccccc3)n2)c1)c1c(F)cccc1F"
Response: 0.0

Prompt: Reported %Inh at or above 10%? "C[C@@H](Oc1cc(-n2cnc3cc(-c4ccnc(NCCS(C)(=O)=O)c4)ccc32)sc1C(N)=O)c1ccccc1Cl"
Response: 0.0

Prompt: Reported %Inh at or above 10%? "COc1ccc(CNC(=O)NC2CCN(c3ccnc(Nc4ccc(F)cc4)n3)CC2)cc1"
Response: 0.0

Prompt: Reported %Inh at or above 10%? "O=C(Nc1cccc(-c2nn3ccccc3c2-c2ccnc(Nc3cccc(F)c3)n2)c1)c1c(F)ccc(F)c1Cl"
Response: 0.0

Prompt: Reported %Inh at or above 10%? "Cl.c1ccc(-c2ccc3c(Nc4ccc5[nH]ncc5c4)ccnc3c2)nc1"
Response: 1.0

Prompt: Reported %Inh at or above 10%? "Fc1ccc(-c2ncn(C3CCNCC3)c2-c2ccnc(Oc3ccc(-c4ccccc4)cc3)n2)cc1"
Response: 1.0
